Hi there, I'd appreciate the recorded phosphorylation enrichment for every entry that follows.
TARGET_OR_TEST_SYSTEM: MERTK (UniProt Q12866)
Sequence (Q12866 whole entry, looked up): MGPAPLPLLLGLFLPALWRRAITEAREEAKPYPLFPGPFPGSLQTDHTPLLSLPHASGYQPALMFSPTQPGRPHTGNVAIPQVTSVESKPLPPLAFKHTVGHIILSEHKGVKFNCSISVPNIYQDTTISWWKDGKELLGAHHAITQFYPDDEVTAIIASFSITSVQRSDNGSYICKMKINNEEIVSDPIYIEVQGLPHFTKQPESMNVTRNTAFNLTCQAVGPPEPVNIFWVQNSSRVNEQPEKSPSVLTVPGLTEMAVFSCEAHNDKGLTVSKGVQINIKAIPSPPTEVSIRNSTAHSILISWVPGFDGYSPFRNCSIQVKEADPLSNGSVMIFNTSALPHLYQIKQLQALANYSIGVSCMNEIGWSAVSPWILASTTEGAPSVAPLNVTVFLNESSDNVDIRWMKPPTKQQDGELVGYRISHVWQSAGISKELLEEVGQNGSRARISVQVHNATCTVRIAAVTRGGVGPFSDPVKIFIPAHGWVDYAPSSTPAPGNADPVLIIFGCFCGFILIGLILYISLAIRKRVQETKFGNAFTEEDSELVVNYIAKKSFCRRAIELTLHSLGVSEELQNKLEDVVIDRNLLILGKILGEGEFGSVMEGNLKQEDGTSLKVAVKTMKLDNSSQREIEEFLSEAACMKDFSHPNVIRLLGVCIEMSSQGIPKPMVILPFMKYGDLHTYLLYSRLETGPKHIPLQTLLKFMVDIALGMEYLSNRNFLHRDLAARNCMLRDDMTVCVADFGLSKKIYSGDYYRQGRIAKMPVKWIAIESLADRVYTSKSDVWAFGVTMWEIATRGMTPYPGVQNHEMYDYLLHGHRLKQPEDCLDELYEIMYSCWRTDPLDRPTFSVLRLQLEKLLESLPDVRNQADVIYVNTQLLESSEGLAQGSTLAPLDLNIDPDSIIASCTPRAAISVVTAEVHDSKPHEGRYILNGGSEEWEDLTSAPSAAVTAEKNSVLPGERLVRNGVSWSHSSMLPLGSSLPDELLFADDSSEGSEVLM
ASSAY_COMMENT: phosphorylation enrichment, bacterial display (enrichment ratio); higher = better substrate or ligand; peptides without Tyr show the background
API doc: respond with a numeric literal and nothing else, no unit.

Qu. Item TKDTIYKQPMF [GBA_Y451_F450I] has what recorded phosphorylation enrichment?
Ans. 0.499

Qu. Item FRPHLYGTPSR [ADGRE2_Y670_S665F] has what recorded phosphorylation enrichment?
Ans. 0.513

Qu. Item IINENYDYLKG [NUP98_Y1664] has what recorded phosphorylation enrichment?
Ans. 0.491

Qu. Item CPTIHYNFMCN [TP53_Y234_T230P_YF] has what recorded phosphorylation enrichment?
Ans. 0.501

Qu. Item TDDMRYPMKSE [TGDS_Y302_N298D] has what recorded phosphorylation enrichment?
Ans. 0.488

* * *

TARGET_OR_TEST_SYSTEM: c-Src SH2
ASSAY_COMMENT: SH2 binding enrichment of the phosphorylated peptide, bacterial display (enrichment ratio); higher = better substrate or ligand; peptides without Tyr show the background
Hi there, I'd appreciate the recorded SH2 binding enrichment for every entry that follows.
API doc: respond with a numeric literal and nothing else, no unit.

Qu. Find the measured SH2 binding enrichment: item RRIHSYRGHLW [VHL_Y112] , target or system c-Src SH2.
Ans. 0.392

Qu. Find the measured SH2 binding enrichment: item RLSPEYKQNEI [GJB1_Y243] , target or system c-Src SH2.
Ans. 0.817

Qu. Find the measured SH2 binding enrichment: item SVVVPYESPEV [TP53_Y220_P222S] , target or system c-Src SH2.
Ans. 1.66

Qu. Find the measured SH2 binding enrichment: item QYPDVYAREEV [CRX_Y67] , target or system c-Src SH2.
Ans. 0.49

Qu. Find the measured SH2 binding enrichment: item IKNSGYISQFL [EIF2AK3_Y585_R588Q_YF] , target or system c-Src SH2.
Ans. 0.573

Qu. Find the measured SH2 binding enrichment: item ITVPAYFNDSQ [HSPA9_Y196] , target or system c-Src SH2.
Ans. 0.498

Qu. Find the measured SH2 binding enrichment: item VFDMLYQLANL [USP24_Y1087] , target or system c-Src SH2.
Ans. 1.11

Qu. Find the measured SH2 binding enrichment: item KAPPTYDTVLQ [CYP3A4_Y347] , target or system c-Src SH2.
Ans. 2.28

Qu. Find the measured SH2 binding enrichment: item VVDVTYDDVPI [FLNB_Y1308_E1305D] , target or system c-Src SH2.
Ans. 0.518

Qu. Find the measured SH2 binding enrichment: item KFLENYLNRLL [PLD2_Y169_YF] , target or system c-Src SH2.
Ans. 1.51

Qu. Find the measured SH2 binding enrichment: item EDASEYFENYI [PARP4_Y214] , target or system c-Src SH2.
Ans. 0.498

Qu. Find the measured SH2 binding enrichment: item AGHEEYSAMRD [KRAS_Y64_Q61H] , target or system c-Src SH2.
Ans. 0.512

Qu. Find the measured SH2 binding enrichment: item RPAPQYPHQVP [ADAM12_Y895] , target or system c-Src SH2.
Ans. 0.647

Qu. Find the measured SH2 binding enrichment: item TESALYGCTIL [MAP3K21_Y724_V728I] , target or system c-Src SH2.
Ans. 0.46

Qu. Find the measured SH2 binding enrichment: item GEAEQYVGGGG [FAT4_Y4980] , target or system c-Src SH2.
Ans. 0.464

Qu. Find the measured SH2 binding enrichment: item LEDEVYAQKMK [TPM2_Y261] , target or system c-Src SH2.
Ans. 0.521

Qu. Find the measured SH2 binding enrichment: item ADKAAYLQNLN [MYH1_Y389] , target or system c-Src SH2.
Ans. 0.39

Qu. Find the measured SH2 binding enrichment: item FSGQVYRQRRK [TH_Y230_D227G] , target or system c-Src SH2.
Ans. 0.244

Qu. Find the measured SH2 binding enrichment: item KLSCSYSHWSA [C4BPA_Y470] , target or system c-Src SH2.
Ans. 0.732

Qu. Find the measured SH2 binding enrichment: item ITLPIYTKESE [ANK2_Y1455] , target or system c-Src SH2.
Ans. 0.515

Qu. Find the measured SH2 binding enrichment: item SSAETYSRMRL [NBEAL2_Y1835] , target or system c-Src SH2.
Ans. 0.691

Qu. Find the measured SH2 binding enrichment: item VIESSYQVAKA [CPT1B_Y534] , target or system c-Src SH2.
Ans. 0.537

Qu. Find the measured SH2 binding enrichment: item SHSMRYFDTAV [HLA-C_Y31] , target or system c-Src SH2.
Ans. 0.51

Qu. Find the measured SH2 binding enrichment: item LNPFIYSLRNC [OR1A2_Y288_W293C] , target or system c-Src SH2.
Ans. 0.624

Qu. Find the measured SH2 binding enrichment: item DTKPAYQNLRQ [BOD1_Y82] , target or system c-Src SH2.
Ans. 0.864

Qu. Find the measured SH2 binding enrichment: item EKGEEYGGGGG [TUBA1A_Y451_E447K] , target or system c-Src SH2.
Ans. 0.51

Qu. Find the measured SH2 binding enrichment: item RLPNGYGLAYR [DLK1_Y262_S260N] , target or system c-Src SH2.
Ans. 0.656

Qu. Find the measured SH2 binding enrichment: item SVNIRYLLFPS [SERAC1_Y548] , target or system c-Src SH2.
Ans. 1.38

Qu. Find the measured SH2 binding enrichment: item HRNNNYEPNLF [BRCA2_Y57_K53R] , target or system c-Src SH2.
Ans. 0.668

Qu. Find the measured SH2 binding enrichment: item NVGGKYSFLKV [GRM3_Y478_YF] , target or system c-Src SH2.
Ans. 0.976

Qu. Find the measured SH2 binding enrichment: item TLEKYYFAFPG [SLC1A1_Y51_F50Y] , target or system c-Src SH2.
Ans. 0.614

Qu. Find the measured SH2 binding enrichment: item GLDGSYLLTDS [SH2D1A_Y29_R32T] , target or system c-Src SH2.
Ans. 0.505

Qu. Find the measured SH2 binding enrichment: item ATHRGYDLDNP [MMUT_Y146_S148L] , target or system c-Src SH2.
Ans. 0.384

Qu. Find the measured SH2 binding enrichment: item FGAHNYHPLPV [OAT_Y55_YF] , target or system c-Src SH2.
Ans. 0.893

Qu. Find the measured SH2 binding enrichment: item PGPQSYPIVTG [PAX5_Y299] , target or system c-Src SH2.
Ans. 0.646

Qu. Find the measured SH2 binding enrichment: item EAVSIYQFHGQ [CBLC_Y402] , target or system c-Src SH2.
Ans. 0.464

Qu. Find the measured SH2 binding enrichment: item KSEMSYIDGEK [SORBS1_Y485] , target or system c-Src SH2.
Ans. 0.467

Qu. Find the measured SH2 binding enrichment: item TSKLSYLDPRI [TOP1_Y723_N722S] , target or system c-Src SH2.
Ans. 0.535

Qu. Find the measured SH2 binding enrichment: item RYVTRHIYNRE [HLA-DQB1_Y62_Y62H] , target or system c-Src SH2.
Ans. 0.414

Qu. Find the measured SH2 binding enrichment: item ESKKHYGFSLF [ANXA3_Y295_F291S_YF] , target or system c-Src SH2.
Ans. 0.644

Qu. Find the measured SH2 binding enrichment: item REVPVYTFSEP [FAM120B_Y368_D370Y_YF] , target or system c-Src SH2.
Ans. 0.496

Qu. Find the measured SH2 binding enrichment: item SKHRLYSDLQT [PTCHD1_Y84] , target or system c-Src SH2.
Ans. 1.57

Qu. Find the measured SH2 binding enrichment: item SDQRRYSLIDP [CLIP2_Y972_R977P] , target or system c-Src SH2.
Ans. 15.9

Qu. Find the measured SH2 binding enrichment: item ANNQRYAFMPL [TMEM87B_Y460] , target or system c-Src SH2.
Ans. 1.42

Qu. Find the measured SH2 binding enrichment: item EREYKYGAHNY [OAT_Y50] , target or system c-Src SH2.
Ans. 0.623

Qu. Find the measured SH2 binding enrichment: item VEYAKYGSLQG [RET_Y809_R813Q] , target or system c-Src SH2.
Ans. 0.786

Qu. Find the measured SH2 binding enrichment: item ENGPFYTSFPP [GDAP2_Y488_YF] , target or system c-Src SH2.
Ans. 0.83

Qu. Find the measured SH2 binding enrichment: item CTTIHYNYTCN [TP53_Y234_M237T] , target or system c-Src SH2.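 Further: peptide library displayed on the E. coli surface as eCPX fusions, selected cells deep-sequenced, score is each peptide's frequency after selection divided by its frequency in the input.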
Ans. 3.29
